Quick reference for SPOT peptide array binding signal intensity among some binders
# TARGET SYSTEM: AgSla1-D1-D2
# EXPERIMENT SUMMARY: SPOT peptide array binding signal intensity (averaged, normalized) (arbitrary units (background-subtracted, floor 0; scale differs between SH3 domains)); higher = stronger binding of the SH3 domain to the peptide

Examples with answers:
> print(dat)
            binder  reported.value
1  TPEIPPPLPPKIMVH             ≤ 0
2  APERAVPILPPRNNV             ≤ 0
3  EQEEIAPSLPSRNSI             ≤ 0

Now for a further binder.
Annotate the binder `SNRRPVPRRPSQPLN` with its measured SPOT peptide array binding signal intensity.
≤ 0
